Cited source for all entries: paper PMC13787487

# TARGET_OR_SYSTEM: T1, SHANK1 PDZ (UniProt Q9Y566)
# T1 chain: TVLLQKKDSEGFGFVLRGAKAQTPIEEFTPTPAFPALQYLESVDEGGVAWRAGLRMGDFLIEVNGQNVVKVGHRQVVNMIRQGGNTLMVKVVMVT
# TEST_NAME: FP
RECORDED_ENDPOINT: pKd
Hey, just a heads up that pKd is the negative log base 10 of the concentration in molar.

Inquiry: Retrieve pKd measured for YNRTNRSRMPNLNDLKETAL [CDKL5-1 941-960] and print it.
Reply text: 5.12
